- System: NA (H7N9)
- Type: biochemical
- applied-conditions: 200 µM
recorded-endpoint: Inhibition rate (%) NA(H7N9)
Quick note: give the figure in %, leave out the unit.

Field: example entries. Status: answers known.
C/C(=C/CC[C@@H](C)[C@H]1CC[C@@]2(C)C3=CC[C@H]4C(C)(C)C(=O)CC[C@]4(C)C3=CC[C@]12C)C(=O)O [Compound 4, Ganoderic acid Sz]; 17.8
C[C@H](CC(=O)C[C@@H](C)[C@H]1C[C@H](O)[C@@]2(C)C3=C(C(=O)C[C@]12C)[C@@]1(C)CC[C@H](O)C(C)(C)[C@@H]1C[C@@H]3O)C(=O)O [Compound 9, Ganoderic acid C2]; 27.5
C[C@H](CC[C@H](O)C(C)(C)O)[C@H]1CC[C@@]2(C)C3=CC[C@H]4C(C)(C)C(=O)CC[C@]4(C)C3=CC[C@]12C [Compound 28, Ganodermanondiol]; 24.3

Alright, here's another molecule for you.
[Q] Consider the molecule CC(=O)O[C@H]1C[C@H]([C@H](C)CC/C=C(\C)C(=O)O)[C@@]2(C)CC=C3C(=CC[C@H]4C(C)(C)C(=O)CC[C@]34C)[C@]12C [Compound 1, Ganoderic acid T-Q] and give its recorded Inhibition rate (%) NA(H7N9).
[A] 27.4
